Target: oligomeric Aβ42 (human synthetic Aβ42, pre-formed oligomers) (human)
Assay: SPR (Biacore 3000), 15M S.A. immobilised on CM5, oAβ42 injected; 1:1 binding model with drifting baseline; overall estimate across the oligomer mixture
pKd: −log10 of the molar value.
readoutKind: pKd

* RI-ANA1 (Arg-Lys-Leu-Met-Gln-Pro-Thr-Arg-Asn-Arg-Arg-Asn-Pro-Asn-Thr, all D-amino acids) (peptide) | 4.96

Just for reference, patent US20160244486A1 is where these values come from.
